system: KRas G12C mutant; assay: Ras GTP binding domain inhibition assay (Cy3-GTP/Cy5-GTP competition); design: species or system human; settings: 20 μM; with SOS
Parameter Measured: KRas G12C mutant + SOS: % inh.

# Compound, Result
records = [
    ("Cn1ccc(-c2sc3nc(-c4nccn4C)nc(NCC4CCOC4)c3c2-c2ccccc2)n1 (stereo not shown) [drawing 861]", "C (51-75% inhibition)"),
    ("COCC1CN(c2nc(-c3nccn3C)nc3sc(-c4cccc(OC)c4F)c(-c4ccc(OC)cc4)c23)C1 [drawing 805]", "D (76-100% inhibition)"),
    ("COC1CCN(c2nc(-c3nccn3C)nc3sc(-c4ccncc4C)c(-c4ccccc4)c23)C1.Cl (stereo not shown)", "B (26-50% inhibition)"),
    ("COC1CCN(c2nc(-c3nccn3C)nc3sc(-c4ccnn4C)c(-c4ccccc4)c23)C1.Cl (stereo not shown)", "C (51-75% inhibition)"),
    ("COc1c(O)nc(-c2ccccn2)nc1Oc1ccccc1 [drawing 813]", "C (51-75% inhibition)"),
    ("COC1CCN(c2nc(-c3nccn3C)nc3sc(-c4ccn(C)n4)c(-c4ccccc4)c23)C1 (stereo not shown) [drawing 863]", "B (26-50% inhibition)"),
    ("Oc1nc(-c2nccn2Cc2ccccn2)nc2c(-c3ccccn3)csc12 [drawing 851]", "D (76-100% inhibition)"),
]

All figures here come from patent US20250296938A1.
